Entry source: the supplement of paper PMC11061612

Test system: Detroit562 (Head and Neck Carcinoma)
Experiment: combination Emax (second highest fraction inhibited in the dose matrix, 72 h); higher = more inhibition; extreme values may be limits of the assay
endpoint-name: combination Emax
# output: bare number, no unit

{"compound": "NC1(C(=O)N[C@@H](CCO)c2ccc(Cl)cc2)CCN(c2ncnc3[nH]ccc23)CC1 [Capivasertib] + CC(=O)c1c(C)c2cnc(Nc3ccc(N4CCNCC4)cn3)nc2n(C2CCCC2)c1=O [Palbociclib] (first compound max 10 µM, 7x7, partner max 10 µM)", "combination Emax": 0.783}
{"compound": "COc1cccc(OCCCN)c1-c1cc(Nc2cnc(C#N)cn2)n[nH]1 [Prexasertib] + O=C(c1cc(Cc2n[nH]c(=O)c3ccccc23)ccc1F)N1CCN(C(=O)C2CC2)CC1 [Olaparib] (first compound max 1 µM, 7x7, partner max 10 µM)", "combination Emax": 0.922}

Could you share which combination Emax value was measured for CN(C)CCCOc1ccc(-c2ccc3ncc4c(c3c2)n(C2CCOCC2)c(=O)n4C)cn1 [AZD0156] + O=C(c1cc(Cc2n[nH]c(=O)c3ccccc23)ccc1F)N1CCN(C(=O)C2CC2)CC1 [Olaparib] (first compound max 3 µM, partner max 3 µM) ?
0.435

Ok, now NC1(C(=O)N[C@@H](CCO)c2ccc(Cl)cc2)CCN(c2ncnc3[nH]ccc23)CC1 [Capivasertib] + CC(C)n1c(=O)n(C)c2cnc3cc(F)c(-c4ccc(OCCCN5CCCCC5)nc4)cc3c21 [AZD1390] (first compound max 10 µM, 7x7, partner max 0.3 µM)
0.599

====

# combination Emax annotations
Tested on: CAL-72 (Osteosarcoma)
Assay: combination Emax (second highest fraction inhibited in the dose matrix, 72 h); higher = more inhibition; extreme values may be limits of the assay
# output: bare number, no unit

{"compound": "CN(CCO)CC[C@H](CSc1ccccc1)Nc1ccc(S(=O)(=O)NC(=O)c2ccc(N3CCC([C@@H](O)c4ccccc4-c4ccc(Cl)cc4)CC3)cc2)cc1S(=O)(=O)C(F)(F)F [AZD4320] + CS(=O)(=O)CCNCc1ccc(-c2ccc3ncnc(Nc4ccc(OCc5cccc(F)c5)c(Cl)c4)c3c2)o1 [Lapatinib] (first compound max 1 µM, 7x7, partner max 10 µM)", "measurement-target": "CAL-72 (Osteosarcoma)", "combination Emax": 0.933}
{"compound": "CC1(C)CCC(CN2CCN(c3ccc(C(=O)NS(=O)(=O)c4ccc(NCC5CCOCC5)c([N+](=O)[O-])c4)c(Oc4cnc5[nH]ccc5c4)c3)CC2)=C(c2ccc(Cl)cc2)C1 [Venetoclax] + C[C@@H]1COCCN1C2=NC(=NC(=C2)C3(CC3)[S@](=N)(=O)C)C4=C5C=CNC5=NC=C4 [AZD6738] (first compound max 1 µM, 7x7, partner max 10 µM)", "measurement-target": "CAL-72 (Osteosarcoma)", "combination Emax": 0.902}

Could you share which combination Emax value was measured for CN(CCO)CC[C@H](CSc1ccccc1)Nc1ccc(S(=O)(=O)NC(=O)c2ccc(N3CCC([C@@H](O)c4ccccc4-c4ccc(Cl)cc4)CC3)cc2)cc1S(=O)(=O)C(F)(F)F [AZD4320] + C[C@@H]1COCCN1C2=NC(=NC(=C2)C3(CC3)[S@](=N)(=O)C)C4=C5C=CNC5=NC=C4 [AZD6738] (first compound max 1 µM, 7x7, partner max 10 µM) ?
0.932
